# run-description: Water solubility
# Format: physicochemical
Reported solubility is given for each of the following compounds.

CCc1c2c(nc3cc(Cl)ccc13)-c1cc([C@@](O)(CC)C(=O)NCCN(C)C)c(COC(=O)CCSC)c(=O)n1C2 :: > 64 mg/mL
CCC(=O)OCc1c([C@@](O)(CC)C(=O)NCCN(C)C)cc2n(c1=O)Cc1c-2nc2cc(F)ccc2c1CC :: 20 mg/mL
CCCC(=O)OCc1c([C@@](O)(CC)C(=O)NCCN(C)C)cc2n(c1=O)Cc1c-2nc2cc(F)ccc2c1CC :: > 59 mg/mL
CCC(=O)OCc1c([C@@](O)(CC)C(=O)NCCN(C)C)cc2n(c1=O)Cc1c-2nc2cc(F)c(OC)cc2c1CC :: > 60 mg/mL
CCc1c2c(nc3cc(F)c(F)cc13)-c1cc([C@@](O)(CC)C(=O)NCCN(C)C)c(COC(=O)CCSC)c(=O)n1C2 :: > 64 mg/mL

Lookup: Fill blank: measured solubility of the compound `CCc1c2c(nc3ccc(O)cc13)-c1cc([C@@](O)(CC)C(=O)NCCN(C)C)c(COC(=O)CCSC)c(=O)n1C2` is ____.
Found: > 62 mg/mL

Lookup: Fill blank: measured solubility of the compound `CCc1c2c(nc3ccc(O)cc13)-c1cc([C@@](O)(CC)C(=O)NCCN(C)C)c(COC(=O)c3ccc(F)cc3)c(=O)n1C2` is ____.
Found: 17 mg/mL

###

# System: mouse leukemia L1210
# run-description: Antitumor activity for L1210 (life prolonging effect, mouse leukemia transplanted intraperitoneally)
# Type: in vivo
# setup-conditions: at optimum dose; group of six female CDF1 mice
reported-metric: 40-day survivors

Previously resolved entries follow.
CCc1c2c(nc3ccc(O)cc13)-c1cc([C@@](O)(CC)C(=O)NCCN(C)C)c(COC(=O)CCSC)c(=O)n1C2 :: 0/6
CCC(=O)OCc1c([C@@](O)(CC)C(=O)NCCN(C)C)cc2n(c1=O)Cc1c-2nc2cc(F)ccc2c1CC :: 4/6
CCCC(=O)OCc1c([C@@](O)(CC)C(=O)NCCN(C)C)cc2n(c1=O)Cc1c-2nc2ccc(Cl)cc2c1CC :: 1/6
CCc1c2c(nc3ccc(Br)cc13)-c1cc([C@@](O)(CC)C(=O)NCCN(C)C)c(COC(=O)CCSC)c(=O)n1C2 :: 1/6
CCc1c2c(nc3ccc(O)cc13)-c1cc([C@@](O)(CC)C(=O)NCCN(C)C)c(COC(=O)C(C)C)c(=O)n1C2 :: 0/6
CCc1c2c(nc3ccc(C)cc13)-c1cc([C@@](O)(CC)C(=O)NCCN(C)C)c(COC(=O)c3ccncc3)c(=O)n1C2 :: 3/6

In the following, a different compound is considered.
Lookup: Fill blank: measured 40-day survivors of the compound `CCc1c2c(nc3ccc(C)cc13)-c1cc([C@@](O)(CC)C(=O)NCCN(C)C)c(COC(=O)CCSC)c(=O)n1C2` is ____.
Found: 5/6

###

# run-description: Antitumor activity for L1210 (life prolonging effect, mouse leukemia transplanted intraperitoneally)
# Format: in vivo
# setup-conditions: mouse, in vivo, ip; numerator of therapeutic index; i.p. total dose; read-out: Maximum tolerable dose
reported-metric: MTD (mg/kg)
// note: answer is a bare numeric in mg/kg

Previously resolved entries follow.
CCC(=O)OCc1c([C@@](O)(CC)C(=O)NCCN(C)C)cc2n(c1=O)Cc1c-2nc2ccc(Cl)cc2c1CC :: 6.25
CCC(=O)OCc1c([C@@](O)(CC)C(=O)NCCN(C)C)cc2n(c1=O)Cc1c-2nc2cc(F)c(C)cc2c1CC :: 12.5
CCc1c2c(nc3ccc(O)cc13)-c1cc([C@@](O)(CC)C(=O)NCCN(C)C)c(COC(=O)c3cccc(F)c3)c(=O)n1C2 :: 200

Lookup: Fill blank: measured MTD of the compound `CCCC(=O)OCc1c([C@@](O)(CC)C(=O)NCCN(C)C)cc2n(c1=O)Cc1c-2nc2cc(Cl)c(Cl)cc2c1CC` is ____.
Found: 3.13

Lookup: Fill blank: measured MTD of the compound `CCc1c2c(nc3cc(F)c(C)cc13)-c1cc([C@@](O)(CC)C(=O)NCCN(C)C)c(COC(=O)c3ccncc3)c(=O)n1C2` is ____.
Found: 12.5
